- subject of test: T1, ST2 on the effector cells (KU812, KU812/NF-κB-1#, HUVEC, HMC-1) (human, UniProt Q01638 19-556)
- T1 sequence (looked up): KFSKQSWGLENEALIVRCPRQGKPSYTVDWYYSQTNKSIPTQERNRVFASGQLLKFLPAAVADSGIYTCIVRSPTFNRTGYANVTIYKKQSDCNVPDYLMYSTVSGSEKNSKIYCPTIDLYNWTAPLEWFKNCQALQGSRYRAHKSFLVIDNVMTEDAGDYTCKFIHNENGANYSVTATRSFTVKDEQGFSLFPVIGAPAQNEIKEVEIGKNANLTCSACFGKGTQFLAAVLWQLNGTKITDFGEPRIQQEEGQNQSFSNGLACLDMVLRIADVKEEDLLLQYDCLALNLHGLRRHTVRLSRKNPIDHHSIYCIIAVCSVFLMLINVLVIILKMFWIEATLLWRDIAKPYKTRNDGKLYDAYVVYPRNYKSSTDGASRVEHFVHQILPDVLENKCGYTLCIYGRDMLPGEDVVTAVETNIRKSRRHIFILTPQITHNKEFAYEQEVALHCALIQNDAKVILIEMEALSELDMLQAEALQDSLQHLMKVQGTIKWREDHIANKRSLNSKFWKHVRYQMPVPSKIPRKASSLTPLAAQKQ
- protocol text: cell-based or functional assay
Listed below: Relative activity compared with CNTO7160, KU812-NF-κB reporter gene values for each entry.
property: Relative activity compared with CNTO7160, KU812-NF-κB reporter gene (%)

>>> value_reported("5888-153-H1L1 (antibody, human IgG4 S228P, kappa, V domains shown) VH: QVQLVQSGAEVKKPGASVKVSCKASGYTFTDYELHWVRQAPGQGLEWMGTIDPETGDTVYNQKFKARVTMTADKSTSTAYMELSSLRSEDTAVYYCTRAFYNDYDDGFAYWGQGTLVTVSS VL: EIVMTQSPATLSLSPGERATLSCSVSSSVSYMHWYQQKPGQAPRRLIYDTSKLASGIPARFSGSGSGTDYTLTISSLEPEDAAVYYCQQWNSSPLTFGGGTKVEIKR")
1620
>>> value_reported("5886-156-H1L0 (antibody, human IgG4 S228P, kappa, V domains shown, Humanized antibody expressed in CHO-K1, purified by protein A) VH: QVQLQESGPGLVKPSQTLSLTCTVSGYSITSDYAWNWIRQPPGKGLEWIGYIDYSGSTTYNPSLKSRVTISRDTSKNQFSLKLSSVTAADTAVYYCASTVIDSMDYWGQGTLVTVSS VL: DIVLTQSPASLAVSPGQRATITCRASKSVSTSGHSYMHWYQQKPGQPPKLLIYLASNLESGVPARFSGSGSGTDFTLTINPVEANDTANYYCQHSREFPFTFGQGTKVEIKR")
41.9
>>> value_reported("5887-41-H1L0 (antibody, human IgG4 S228P, kappa, V domains shown, Humanized antibody) VH: QVQLQESGPGLVKPSQTLSLTCTVSGYSITSDYAWDWIRQPPGKGLEWIGYIRYSGDTYYNPSLKSRVTISRDTSKNQFSLKLSSVTAADTAVYYCATTMMDTMDYWGQGTLVTVSS VL: DIVLTQSPASLAVSPGQRATITCRASKSVSTSGNSYMHWYQQKPGQPPKLLIYLASNLESGVPARFSGSGSGTDFTLTINPVEANDTANYYCQHSREFPLTFGQGTKLEIKR")
362
